Each recorded value in this set is attributed to ChEMBL document CHEMBL1138798.

TARGET_OR_TEST_SYSTEM: Acetylcholinesterase (Homo sapiens, UniProt P22303)
Sequence (P22303 whole entry): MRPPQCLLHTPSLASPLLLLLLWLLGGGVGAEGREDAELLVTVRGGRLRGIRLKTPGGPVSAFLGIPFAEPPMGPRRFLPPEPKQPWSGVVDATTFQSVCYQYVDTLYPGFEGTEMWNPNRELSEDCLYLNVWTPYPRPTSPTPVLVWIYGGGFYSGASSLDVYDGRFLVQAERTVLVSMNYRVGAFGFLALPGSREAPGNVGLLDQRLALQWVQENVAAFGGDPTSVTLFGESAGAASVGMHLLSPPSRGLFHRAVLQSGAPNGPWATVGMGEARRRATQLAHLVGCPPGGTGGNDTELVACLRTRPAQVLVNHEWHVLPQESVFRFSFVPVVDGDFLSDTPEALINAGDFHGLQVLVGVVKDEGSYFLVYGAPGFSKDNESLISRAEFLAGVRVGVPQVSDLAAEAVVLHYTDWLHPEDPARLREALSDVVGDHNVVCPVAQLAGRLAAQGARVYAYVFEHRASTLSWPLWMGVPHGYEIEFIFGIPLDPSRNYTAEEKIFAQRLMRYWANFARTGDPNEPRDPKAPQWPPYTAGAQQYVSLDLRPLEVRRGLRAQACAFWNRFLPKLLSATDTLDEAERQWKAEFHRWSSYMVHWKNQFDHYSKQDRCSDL
Recorded pIC50 for the following compounds
The scale used: pIC50 is minus the common logarithm of the concentration in molar units.

Query string: // fetch pIC50 for COc1cc2c(cc1OC)SC(C(=O)CCc1cc[n+](Cc3ccc(F)cc3)cc1)C2 (stereo unspecified) ; system: Acetylcholinesterase (Homo sapiens, UniProt P22303)
Result string: 8.59

Query string: // fetch pIC50 for COc1cc2cc(C(=O)CC3CCCC[N+](C)(Cc4ccccc4)CC3)sc2cc1OC (stereo unspecified) ; system: Acetylcholinesterase (Homo sapiens, UniProt P22303)
Result string: 6.96

Query string: // fetch pIC50 for COc1cc2c(cc1OC)SC(C(=O)CCc1cc[n+](Cc3ccsc3)cc1)C2 (stereo unspecified) ; system: Acetylcholinesterase (Homo sapiens, UniProt P22303)
Result string: 8.22

Query string: // fetch pIC50 for COCC[N+]1(C)CCCC(C(=O)c2cc3cc(OC)c(OC)cc3s2)CC1 (stereo unspecified) ; system: Acetylcholinesterase (Homo sapiens, UniProt P22303)
Result string: 7.28

Query string: // fetch pIC50 for COc1cc2c(cc1OC)SC(C(=O)CCc1cc[n+](CC3CCC3)cc1)C2 (stereo unspecified) ; system: Acetylcholinesterase (Homo sapiens, UniProt P22303)
Result string: 7.40

Query string: // fetch pIC50 for COc1cc2cc(C(=O)C3CCC[N+](C)(Cc4ccc([N+](=O)[O-])o4)CC3)sc2cc1OC (stereo unspecified) ; system: Acetylcholinesterase (Homo sapiens, UniProt P22303)
Result string: 7.49
